# TARGET_OF_ASSAY: CD3ε homodimer protein (human, UniProt P07766 23-126, limits assumed)
# Sequence (P07766 23-126 limits assumed): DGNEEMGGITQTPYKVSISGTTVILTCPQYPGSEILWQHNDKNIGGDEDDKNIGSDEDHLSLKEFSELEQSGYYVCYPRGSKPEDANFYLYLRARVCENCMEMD
# EXPERIMENTAL_PROTOCOL: SPR, immobilized CD3ε homodimer;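 also: biacore T200 surface plasmon resonance at 25 °C, antibody variants flowed as analytes over amine-coupled CD3ε homodimer on a CM4 chip, variant binding amount divided by that of GLS3000 antibody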

[
  {
    "BINDER": "GLS3000 V94A (antibody, name in Kabat numbering, V domains shown, one-arm format as m2) VH: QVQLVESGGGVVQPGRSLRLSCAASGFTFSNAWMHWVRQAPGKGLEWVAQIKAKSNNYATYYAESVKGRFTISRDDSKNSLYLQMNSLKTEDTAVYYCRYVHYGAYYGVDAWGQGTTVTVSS VL: DIVMTQSPLSLPVTPGEPASISCRSSQSLVHSNRNTYLHWYQQKPGQAPRLLIYKVSNRFSGVPDRFSGSGSGTDFTLKISRVEAEDVGVYYCGQGTQAPYTFGQGTKLEIK",
    "ratio of amounts bound (vs GLS3000)": 1.05
  },
  {
    "BINDER": "GLS3000 T31D (antibody, name in Kabat numbering, V domains shown, one-arm format as m2) VH: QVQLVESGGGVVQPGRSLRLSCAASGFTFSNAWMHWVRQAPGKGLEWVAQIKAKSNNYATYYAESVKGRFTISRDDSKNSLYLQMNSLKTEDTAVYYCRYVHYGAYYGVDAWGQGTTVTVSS VL: DIVMTQSPLSLPVTPGEPASISCRSSQSLVHSNRNDYLHWYQQKPGQAPRLLIYKVSNRFSGVPDRFSGSGSGTDFTLKISRVEAEDVGVYYCGQGTQVPYTFGQGTKLEIK",
    "ratio of amounts bound (vs GLS3000)": 0.23
  }
]
